# MEASURED TARGET: UniProt:P54578
# Sequence (P54578 whole entry, looked up): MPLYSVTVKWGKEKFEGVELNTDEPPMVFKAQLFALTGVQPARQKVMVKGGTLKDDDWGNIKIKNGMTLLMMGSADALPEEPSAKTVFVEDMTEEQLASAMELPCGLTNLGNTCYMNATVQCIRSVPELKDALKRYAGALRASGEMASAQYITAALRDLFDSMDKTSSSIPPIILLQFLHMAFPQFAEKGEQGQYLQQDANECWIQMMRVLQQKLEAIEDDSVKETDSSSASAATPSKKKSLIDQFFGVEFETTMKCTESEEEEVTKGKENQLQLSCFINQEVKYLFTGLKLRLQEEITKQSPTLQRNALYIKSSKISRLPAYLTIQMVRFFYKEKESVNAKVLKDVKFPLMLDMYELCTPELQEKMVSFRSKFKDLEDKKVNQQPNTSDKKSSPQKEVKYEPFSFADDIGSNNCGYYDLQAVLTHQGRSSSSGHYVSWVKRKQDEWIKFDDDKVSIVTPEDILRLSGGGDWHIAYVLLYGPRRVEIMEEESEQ
MEASURED ENDPOINT: IC50

Examples with answers:
Cc1c(C(=O)CN2CCC(O)CC2)c2ncc(Br)cc2n1-c1ccc(C#N)cc1 [Compound 353] ... < 500 nM
COCCOc1cnc2c(C(=O)CN3CCC(O)CC3)c(C)n(-c3ccc(C#N)cc3)c2c1 [Compound 341] ... < 500 nM
Cc1c(C(=O)CN2CCCCC2)c2nc(-n3ccnn3)ccc2n1-c1ccc(C#N)cc1 [Compound 209] ... < 500 nM
CCOC(=O)CCc1ccc2c(C(=O)CN3CCCCC3)c(C)n(-c3ccc(C#N)cc3)c2c1 [Compound 133] ... < 500 nM
C=Cc1ccc2c(C(=O)CN3CCCCC3)c(C)n(-c3ccc(C#N)cc3)c2c1 [Compound 206] ... < 500 nM
Cc1cnc2c(C(=O)CN3CCCCC3)c(C)n(-c3ccc(C#N)cc3)c2c1 [Compound 184] ... < 500 nM
Cc1c(C(=O)CN2CCC(O)CC2)c2ccccc2n1-c1ccc(Cl)cn1 [Compound 398] ... 500 to 5000 nM
Cc1cnc2c(C(=O)CN3CCCC(F)C3)c(C)n(-c3ccc(C#N)cc3)c2c1 (centres unmarked) [Compound 189] ... < 500 nM
O=C(CN1CCCC1)c1cn(-c2ccc(Cl)cc2)c2ccccc12 [Compound 34] ... > 5000 nM
Cc1c(C(=O)CN2CCCCC2)c2ccncc2n1-c1ccc(C#N)cc1 [Compound 144] ... 500 to 5000 nM

UniProt:P54578 / IC50 / CC(=O)Oc1ccc2c(C(=O)CN3CCCCC3)c(C)n(-c3ccc(Cl)cc3)c2c1 [Compound 172] : value?
< 500 nM

UniProt:P54578 / IC50 / Cc1c(C(=O)CN2CCCCC2)c2ccc(CCO)cc2n1-c1ccc(C#N)cc1 [Compound 207] : value?
< 500 nM

UniProt:P54578 / IC50 / Cc1c(C(=O)CN2CC[C@H](O)[C@H](O)C2)c2ncc(Br)cc2n1-c1ccc(C#N)cc1 [Compound 332] : value?
< 500 nM

UniProt:P54578 / IC50 / CCCOc1cnc2c(C(=O)CN3CCC(O)CC3)c(C)n(-c3ccc(C#N)cc3)c2c1 [Compound 347] : value?
< 500 nM

UniProt:P54578 / IC50 / CC(=O)OCCc1ccc2c(C(=O)CN3CCCCC3)c(C)n(-c3ccc(C#N)cc3)c2c1 [Compound 205] : value?
< 500 nM

UniProt:P54578 / IC50 / Cc1c(C(=O)CN2CCCCC2)c2cc(Oc3ccccc3)ccc2n1-c1ccc(Cl)cc1 [Compound 145] : value?
500 to 5000 nM

UniProt:P54578 / IC50 / Cc1c(C(=O)CN2CCCCC2)c2ccc(CC(N)=O)cc2n1-c1ccc(C#N)cc1 [Compound 203] : value?
< 500 nM
